These entries and their values trace back to patent US7795294B2.

Biological target: human CB2 receptor (Homo sapiens, UniProt P34972)
Construct: expressed in transfected cells; host or cells: SK-N-MC cells, stably transfected with pcDNA3 CB-2 (human); semi-purified membrane pellet
Sequence (P34972 whole entry): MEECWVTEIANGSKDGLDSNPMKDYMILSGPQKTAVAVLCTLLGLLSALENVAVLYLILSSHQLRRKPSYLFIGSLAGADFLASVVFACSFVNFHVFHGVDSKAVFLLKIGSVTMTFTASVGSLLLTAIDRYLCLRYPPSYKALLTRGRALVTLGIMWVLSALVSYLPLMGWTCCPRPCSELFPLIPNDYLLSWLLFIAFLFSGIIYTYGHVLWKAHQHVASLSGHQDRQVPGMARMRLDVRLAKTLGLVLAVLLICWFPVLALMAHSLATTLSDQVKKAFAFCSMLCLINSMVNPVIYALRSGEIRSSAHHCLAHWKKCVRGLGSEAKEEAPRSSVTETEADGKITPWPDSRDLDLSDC
Experiment: Binding assay for CB2 agonists or inverse agonists, [3H]-CP-55,940 displacement on membranes of transfected SK-N-MC cells
Conditions: radioligand CP-55,940 0.2 nM; average where two or more values; read-out: Cannabinoid CB2 Receptor Binding IC50
Measurement type: IC50 (nM)
Please give a number only; it is taken to be in nM.

// returns IC50 for CCOC(=O)[C@H]1C2CCC(C2)[C@@H]1NC(=O)C1CCCc2c1nn(-c1ccc(OC)cc1)c2-c1ccc(C)cc1 (stereo partly shown) with human CB2 receptor (Homo sapiens, UniProt P34972); value = 370

====

Target: human CB1 receptor (Homo sapiens)
Construct: expressed in transfected cells; host or cells: SK-N-MC cells, stably transfected with pcDNA3 CB-1 (human); semi-purified membrane pellet
Sequence (P21554 whole entry): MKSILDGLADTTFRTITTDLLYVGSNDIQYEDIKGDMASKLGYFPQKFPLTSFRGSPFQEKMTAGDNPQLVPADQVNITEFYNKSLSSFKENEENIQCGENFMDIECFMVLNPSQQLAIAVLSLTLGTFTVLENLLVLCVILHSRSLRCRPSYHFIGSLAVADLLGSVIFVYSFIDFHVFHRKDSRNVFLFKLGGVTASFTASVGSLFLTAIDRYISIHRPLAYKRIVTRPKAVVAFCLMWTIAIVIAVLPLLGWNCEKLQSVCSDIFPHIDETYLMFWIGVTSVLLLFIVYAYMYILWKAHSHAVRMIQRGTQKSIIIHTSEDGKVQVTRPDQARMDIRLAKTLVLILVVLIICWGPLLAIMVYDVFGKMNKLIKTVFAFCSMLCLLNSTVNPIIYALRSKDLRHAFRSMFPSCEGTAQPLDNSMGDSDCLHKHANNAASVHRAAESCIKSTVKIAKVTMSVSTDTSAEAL
Assay: Binding assay for CB1 agonists or inverse agonists, [3H]-CP-55,940 displacement on membranes of transfected SK-N-MC cells
Each entry below carries its reported IC50.
Please give a number only; it is taken to be in nM.

Would you please look over these solved cases?
>  <Compound>
COc1ccc(-c2c3c(nn2-c2ccc(Cl)cc2Cl)C(C(=O)NN(C)c2ccccc2)CCC3)cc1 (stereo not drawn)

>  <IC50 (nM)>
6

$$$$
>  <Compound>
CC12CCC(C1)C(C)(C)[C@H]2NC(=O)C1CCCc2c1nn(Cc1ccccc1)c2-c1cccc(F)c1 (stereo partly drawn)

>  <IC50 (nM)>
400

$$$$

Now for another entry.
// returns IC50 for CN(NC(=O)C1CCCc2c1nn(-c1ccc(Cl)cc1Cl)c2-c1ccc(Cl)cc1)c1ccccc1 (stereo not drawn) with human CB1 receptor (Homo sapiens); value = 2

====

Biological target: human CB2 receptor (Homo sapiens)
Construct: expressed in transfected cells; host or cells: SK-N-MC cells, stably transfected with pcDNA3 CB-2 (human); semi-purified membrane pellet
Assay: Binding assay for CB2 agonists or inverse agonists, [3H]-CP-55,940 displacement on membranes of transfected SK-N-MC cells
Conditions: read-out: Cannabinoid CB2 Receptor Binding percent inhibition
Measurement type: inhibition at 0.2 µM (%)
Please give a number only; it is taken to be in %.

>  <Compound>
COc1ccc(-c2c3c(nn2-c2ccc(Cl)cc2Cl)C(C(=O)NN2CCCCC2)CCC3)cc1 (stereo not shown)

>  <inhibition at 0.2 µM (%)>
18

$$$$

Short answer for C[C@@H](NC(=O)[C@@H]1CCCc2c1nn(-c1ccc(Cl)cc1Cl)c2-c1ccc(Br)s1)C1CCCCC1 : inhibition at 0.2 µM was 27

Short answer for C[C@@H](NC(=O)C1CCCc2c1nn(-c1ccc(Cl)cc1Cl)c2-c1ccc(Cl)s1)C1CCCCC1 (stereo partly shown) : inhibition at 0.2 µM was 5

Short answer for O=C(NN1CCCCCC1)C1CCCc2c1nn(-c1ccc(Cl)cc1Cl)c2-c1ccc(Cl)cc1 (stereo not shown) : inhibition at 0.2 µM was 0

Short answer for C[C@@H](NC(=O)[C@H]1CCCc2c1nn(-c1ccc(Cl)cc1Cl)c2-c1ccc(Cl)cc1)c1ccccc1 : inhibition at 0.2 µM was 1

Short answer for C[C@@H](NC(=O)[C@H]1CCCc2c1nn(-c1ccc(Cl)cc1Cl)c2-c1ccc(Br)s1)c1ccccc1 : inhibition at 0.2 µM was 20

Short answer for COc1ccc(-c2c3c(nn2-c2ccc(Cl)cc2Cl)C(C(=O)NN2CC4CCCC4C2)CCC3)cc1 (stereo not shown) : inhibition at 0.2 µM was 23

Short answer for COc1ccc(-c2c3c(nn2-c2ccc(Cl)cc2Cl)[C@H](C(=O)N[C@H](C)c2ccccc2)CCC3)cc1 : inhibition at 0.2 µM was 28
